Test system: Rattus norvegicus
TEST: Analgesic activity in po dosed Sprague-Dawley rat by rotarod test
Format: functional
The following molecules are listed with their measured ED50 values.
METRIC: ED50

In [3]: df
Out[3]:
                                   molecule  metric  endpoint_result
0  CC(C)(C)c1ccc(-c2ccc(C(=O)N3CCN(C4CCCCC4)CC3)o2)cc1    ED50    > 300 µmol/kg
1  O=C(c1ccc(-c2ccc(Cl)cc2)o1)N1CCN(C2CCCCC2)CC1    ED50    > 300 µmol/kg
2       O=C(c1ccc(-c2ccc(Cl)cc2)o1)N1CCNCC1    ED50    > 300 µmol/kg
3  Nc1nnc(-c2cccc(Cl)c2Cl)c(N)n1 [LAMOTRIGINE]    ED50    > 390 µmol/kg
